Recorded cytotoxicity at 10 µM values for a group of compounds are listed next.
TEST: Toxicity liver stage against HepG2, at 10uM
Format: cell-based
Set-up: test concentration 10 uM, cell line HepG2-A16-CD81EGFP
CONDITION_DESCRIPTION: human, HepG2-A16-CD81EGFP cells; read-out: INHIBITION
Use % as the unit, but write only the number.

Examples with their reported cytotoxicity at 10 µM follow.
COMPOUND: CCn1c(CN(C)C)nnc1C1CCN(Cc2cccc(OC)c2)CC1
UNIT_SYMBOL: %
cytotoxicity at 10 µM: -13.6
//
COMPOUND: COc1cccc(-c2nc(CNCc3cccnc3)cs2)c1
UNIT_SYMBOL: %
cytotoxicity at 10 µM: -9.37
//
COMPOUND: CCn1cc(CN2C[C@@H]3CCCN3C[C@@H]2CCSC)cn1
UNIT_SYMBOL: %
cytotoxicity at 10 µM: -13.9

# compound O=C(CC1=CCCCC1)Nc1ncn(CC(=O)N2CCCCCC2)n1 ; its cytotoxicity at 10 µM = 1.72

Measured cytotoxicity at 10 µM of O[C@H]1CCN(CC2CCOC2)[C@H]1Cc1ccncc1 (some centres not stated) : -2.32

What the record says about Cc1nnc(NCc2ccc(SC(F)F)cc2)o1 : cytotoxicity at 10 µM is 6.48

The value of cytotoxicity at 10 µM measured for the compound Cc1ccc(NC(=O)N2CCCC2)c(OCC2CCCO2)c1 (configuration not stated) turned out to be 6.36

Value of measured cytotoxicity at 10 µM for the entry CN1CCCC1CNC(=O)CCCOc1cccc(F)c1 (configuration not stated) : -9.54

###

TEST: Toxicity liver stage against HepG2, at 10uM
Assay type: cell-based
Design: test concentration 10 uM, cell line HepG2-A16-CD81EGFP
CONDITION_DESCRIPTION: human, HepG2-A16-CD81EGFP cells; read-out: INHIBITION
PARAMETER_MEASURED: cytotoxicity at 10 µM
Put down the number, then write its unit next to it.

cytotoxicity at 10 µM in this record for COc1cc(NC(=O)c2ccc(F)cc2Cl)c(C(=O)N(C)C)cc1OC : -11.1%

###

TEST: Toxicity liver stage against HepG2, at 10uM
Format: cell-based
Design: test concentration 10 uM, cell line HepG2-A16-CD81EGFP
CONDITION_DESCRIPTION: human, HepG2-A16-CD81EGFP cells; read-out: INHIBITION
Measured cytotoxicity at 10 µM accompanies every entry in the list below.
I only need the number, in %, no unit after it.

Solved entries (count: 4):
MOLECULE: CC(=O)N1C[C@@H]2C(=O)N(C)C3(CCN(C(=O)C(C)C)CC3)[C@@H]2C1
UNIT_SYMBOL: %
TEST_VALUE: 0.434
//
MOLECULE: CC(C)CN1Cc2c(C(=O)N(C)C)ncn2-c2ccccc2S1(=O)=O
UNIT_SYMBOL: %
TEST_VALUE: 3.63
//
MOLECULE: O=C(Cn1cccn1)N1CCC(Oc2ccc(C(F)(F)F)cn2)CC1
UNIT_SYMBOL: %
TEST_VALUE: 8.77
//
MOLECULE: COCc1nc2cc(NCc3ccc(CO)o3)ccc2o1
UNIT_SYMBOL: %
TEST_VALUE: -16.2

Record O=C1CN(Cc2nnc(-c3ccc(Cl)cc3)o2)CCN1 . Reported cytotoxicity at 10 µM: -0.238

Input CCC(=O)NC1CCCN(Cc2ccc(-n3ccnc3)cc2)C1 (centres undefined) . Output cytotoxicity at 10 µM: -47.8

Recorded result, Cc1cc(F)cc(S(=O)(=O)NC(=O)CCc2cncc(F)c2)c1 , cytotoxicity at 10 µM: 7.78

Record summary for OC(COCc1cccs1)Cn1cc(Br)cn1 (centres undefined) : reported cytotoxicity at 10 µM = 1.91

Form: molecule = O=C(NCCNc1ccc(C(F)(F)F)cn1)c1ccc(F)cc1Cl ; cytotoxicity at 10 µM = -7.65

###

TEST: Toxicity liver stage against HepG2, at 10uM
Type: cell-based
Parameters: test concentration 10 uM, cell line HepG2-A16-CD81EGFP
CONDITION_DESCRIPTION: human, HepG2-A16-CD81EGFP cells; read-out: INHIBITION
PARAMETER_MEASURED: cytotoxicity at 10 µM
Answer shape: numeric part, then the unit.

COMPOUND: Cc1cnn(CC2CCCN2c2ncnc3c2CCC3)c1 (centres undefined)
TEST_VALUE: 7.84%

compound Cc1cccc(C)c1Nc1noc2c1CN(C(=O)c1ccn(C)n1)CC2 , cytotoxicity at 10 µM observed: 5.69%

The compound identified as Cc1noc(C)c1CNC(C(=O)N1CCOCC1)C(C)C (centres undefined) registered its cytotoxicity at 10 µM at 4.55%

Consider CN(Cc1nc(C2CC2)no1)C(=O)C1COc2ccccc2C1 (centres undefined) . Its measured cytotoxicity at 10 µM is -0.509%

###

TEST: Toxicity liver stage against HepG2, at 10uM
Format: cell-based
Set-up: test concentration 10 uM, cell line HepG2-A16-CD81EGFP
CONDITION_DESCRIPTION: human, HepG2-A16-CD81EGFP cells; read-out: INHIBITION
PARAMETER_MEASURED: cytotoxicity at 10 µM (%)
Use % as the unit, but write only the number.

Record COc1ncc(C)cc1NC(=O)COCC(F)(F)F , field cytotoxicity at 10 µM: -5.42

// sample O=C(NS(=O)(=O)c1c(Cl)cccc1Cl)c1cccc2c1OCCO2 , its cytotoxicity at 10 µM was 0.582

Sure, the documented cytotoxicity at 10 µM for O=c1c2ccccc2nc2n1CCC2O (stereo not given) is 7.68

Form: molecule = CC(C)N1CCC(CN2CCn3nc(CNC(=O)N(C)C)cc3C2)CC1 ; cytotoxicity at 10 µM = 1.09

Entry Cc1ccc(-c2nn(C)c(C(=O)O)c2Br)cc1 , cytotoxicity at 10 µM reported as -49.7

response.value for CC(C)c1nc2n(n1)CC(NCc1nnc(C(C)C)o1)CC2 (stereo not given) (field: cytotoxicity at 10 µM) = -4.13

###

TEST: Toxicity liver stage against HepG2, at 10uM
Assay type: cell-based
Design: test concentration 10 uM, cell line HepG2-A16-CD81EGFP
CONDITION_DESCRIPTION: human, HepG2-A16-CD81EGFP cells; read-out: INHIBITION
PARAMETER_MEASURED: cytotoxicity at 10 µM (%)
Field: numeric (%). Do not append units.

Worked examples, 5 molecules total:
COMPOUND: Cc1ccccc1C(=O)NC[C@@H]1CCN(C(=O)C2(O)CCCC2)C[C@H]1O
UNIT_SYMBOL: %
cytotoxicity at 10 µM: -38.7
//
COMPOUND: Cn1ccnc1CN1CCC2(CC1)COC2
UNIT_SYMBOL: %
cytotoxicity at 10 µM: 6.81
//
COMPOUND: COCC(=O)NC[C@]1(O)CN(Cc2ccc3c(c2)OCCO3)C[C@H]1O
UNIT_SYMBOL: %
cytotoxicity at 10 µM: 1.88
//
COMPOUND: FC(F)(F)c1cc(C2CCN(c3cnccn3)CC2)n2ccnc2n1
UNIT_SYMBOL: %
cytotoxicity at 10 µM: -1.53
//
COMPOUND: COC(=O)CCCn1ccnc1-c1ccccc1
UNIT_SYMBOL: %
cytotoxicity at 10 µM: -4.65

Moving on to the next molecule.
Form: molecule = COc1ccc(NC(=O)c2ccco2)c(N2CCN(C(C)=O)CC2)n1 ; cytotoxicity at 10 µM = -10.2

###

TEST: Toxicity liver stage against HepG2, at 10uM
Format: cell-based
Design: test concentration 10 uM, cell line HepG2-A16-CD81EGFP
CONDITION_DESCRIPTION: human, HepG2-A16-CD81EGFP cells; read-out: INHIBITION
PARAMETER_MEASURED: cytotoxicity at 10 µM (%)
Supply the numeric figure in %, leaving out any unit text.

Reference set (5 entries):
COMPOUND: Cc1ncsc1C(=O)N1CCc2[nH]nc(-c3ccc4c(c3)OCO4)c2C1
UNIT_SYMBOL: %
cytotoxicity at 10 µM: -141

COMPOUND: CCn1nc(C)c2ncnc(N(C)Cc3ccco3)c21
UNIT_SYMBOL: %
cytotoxicity at 10 µM: 8.88

COMPOUND: CN(C)S(=O)(=O)N1CC[C@]2(O)CCN(CCCc3cccnc3)C[C@@H]2C1
UNIT_SYMBOL: %
cytotoxicity at 10 µM: -6.55

COMPOUND: CCCOc1cc(C)ccc1NC(=O)NCCNC(=O)C(C)C
UNIT_SYMBOL: %
cytotoxicity at 10 µM: 8.31

COMPOUND: CN(C)CCn1c([C@H]2CCCO2)cc2cccnc21
UNIT_SYMBOL: %
cytotoxicity at 10 µM: 17.1

// cytotoxicity at 10 µM lookup, compound = OC(CNCCn1cccn1)COc1ccc(Br)cc1 (stereo unspecified) , result: -8.03

Recorded cytotoxicity at 10 µM (compound O=C(CO)N1CCCC2(CCC(=O)N(CC3CC3)C2)C1 (stereo unspecified) ): 5.75

get_value(item= Nc1cc(-c2nccnc2N2CCCC2)c2cc[nH]c2n1 , readout=cytotoxicity at 10 µM) returns 13.6

For this compound ( O=C([C@H]1C[C@H]2OCC[C@H]2N(Cc2ccc(F)cc2)C1)N1CCCCO1 ), measured cytotoxicity at 10 µM is -65.5

Lab note: CCc1nc(C2CCCN(C(=O)NCCOC)C2)no1 (stereo unspecified) gave cytotoxicity at 10 µM of -0.775

get_value(item= COCC(=O)N1C[C@@H](CN2CCCN(C)CC2)[C@@H](CO)C1 , readout=cytotoxicity at 10 µM) returns -3.85

Numbers sourced from ChEMBL document CHEMBL4513216.
